Details: 313.2 K; 101.3 kPa; Liquid; Vibrating tube method
The label depends only on mass density: criterion met if it is at least 700 kg/m3, criterion not met if it is smaller.

Known results for compounds:
{"test.smiles": "CC(C)CC(C)(C)C", "class.assignment": "criterion not met"}
{"test.smiles": "CCCCCCCCCCC", "class.assignment": "criterion met"}

Read the next record carefully.
Task: Is the recorded value of mass density equal to or greater than 700 kg/m3 for this compound? CCCCCCCCCCCC
Result: criterion met

====

Conditions: 298.2 K; 101.3 kPa; Liquid; Vibrating tube method
Label true (1) when mass density < 700 kg/m3; otherwise false (0).

{"molecule": "CCCCCCCCCC [decane]", "class.assignment": "false (0)"}
{"molecule": "C1CCCCC1 [cyclohexane]", "class.assignment": "false (0)"}
{"molecule": "CCCCCCCCCCC [undecane]", "class.assignment": "false (0)"}

Task: Please indicate whether the reported mass density of CCCCC [pentane] is strictly below 700 kg/m3.
Result: true (1)

Task: Try this molecule too: CCCCCCCCCCCC [dodecane]
Result: false (0)

Task: Try this molecule too: CCCCCC [hexane]
Result: true (1)
